These data points were gathered from PubChem BioAssay (NCATS).

system: CRL-7250; assay: Cytotoxic Profiling of Annotated Libraries Using Quantitative High-Throughput Screening (AID 1296008); conditions: Five cell lines viability, CellTiter-Glo ATP luminescence, 48-72 h; hits give low values; further: on the % scale 0 is the no-effect control and ±100 the full control effect; nearly all actives have a fitted effect of over 60% in size
Results filed as inconclusive are left out.
metricName: max response (%)
Numbers only, in %.

Observe how each entry below is paired with its result.
O=C(NC/C=C/CN1CCN(c2cccc(Cl)c2Cl)CC1)c1ccc(-c2ccccn2)cc1
-4.15
CC[C@H]1OC(=O)[C@H](C)[C@@H](O[C@H]2C[C@@](C)(OC)[C@@H](O)[C@H](C)O2)C(C)[C@@H](O[C@@H]2O[C@H](C)C[C@H](N(C)C)[C@H]2O)[C@](C)(O)C[C@@H](C)CN(C)[C@H](C)[C@@H](O)[C@]1(C)O (stereo partly drawn)
-0.571
C=C1Cc2c(Cl)cc3[nH]c4c5c3c2[C@@]2(O)[C@@H]1C[C@@H]2C(C)(C)O[C@H]5C1CC[C@@]2(O)[C@@]35O[C@@H]3[C@H]3OC(C)(C)[C@H]3O[C@H]5CC[C@]2(C)[C@@]41C (stereo partly drawn)
-4.78
CC1=C2CC(O)(C(C)(C)O)C(O[C@@H]3O[C@H](CO)[C@@H](O)[C@H](O)[C@H]3O)CC(C)C2CC1=O (stereo partly drawn)
2.9

For each entry beneath this line, provide reported max response.
1. O=C(O)CCc1ccc(NCc2cccc3c2CCCN3CCOc2ccccc2)cc1F
2. C[C@@H]1O[C@@H](O[C@H]2[C@H](OC(=O)[C@]34CCC(C)(C)C[C@H]3C3=CCC5[C@@]6(C)CC[C@H](O[C@@H]7O[C@H](CO[C@@H]8OC[C@H](O)[C@H](O)[C@H]8O[C@@H]8OC[C@@H](O)[C@H](O)[C@H]8O)[C@@H](O)[C@H](O)[C@H]7O)C(C)(C)C6CC[C@@]5(C)[C@]3(C)C[C@H]4O)O[C@H](CO)[C@@H](O)[C@@H]2O)[C@H](O[C@@H]2O[C@H](CO)[C@@H](O)[C@H](O)[C@H]2O)[C@H](O)[C@H]1O[C@@H]1OC[C@@H](O)[C@H](O[C@@H]2OC[C@@H](O)[C@H](O)[C@H]2O)[C@H]1O (stereo partly drawn)
3. COc1ccc(S(=O)(=O)Nc2nc(-c3cccc([N+](=O)[O-])c3)cs2)cc1OC
4. COc1c(-c2ccc(O)cc2)cc(OC)c2c1oc1cc(O)c(OC3OC(CO)C(O)C3O)cc12 (stereo not drawn)
5. C[C@@H]1O[C@@H](O[C@@H]2\C=C/C=C\C=C/C=C\C[C@H](C)OC(=O)/C=C\[C@H]3O[C@@H]3C[C@H](O)C[C@]3(O)C[C@@H](O)[C@@H](C(=O)O)[C@H](C2)O3)[C@H](O)[C@H](N)[C@@H]1O

OUTPUT:
[0.539, 0.998, -1.12, -0.713, 3.44]

----------
assay: Primary qHTS for inhibitors of nuclear receptor binding SET domain protein 2 (NSD2) in an RCH-ACV wild type WT cells (2C) (AID 1645877); settings: RCH-ACV (leukaemia line) NSD2 WT (2C) viability, CellTiter-Glo, 72 h; series mostly up to 44.9 µM; further: nearly all actives have a fitted effect of over 70% in size; on activity change, negative = cell killing: on the % scale 0 is the no-effect control and ±100 the full control effect
Inconclusive results are not listed. Active and inactive are the calls of the source. The call rests on the fitted dose curve; in most records, active means well fitted inhibition curve with a large enough effect; inconclusive means small, poorly fitted or top-dose-only effect; inactive means no such curve, though single readings can be large or run the other way.
metricName: activity change, negative = cell killing

Cc1nc(-c2cccnc2)sc1C(=O)Nc1ccccc1-c1cn2c(CN3CCOCC3)csc2n1
inactive
CC1(C)CC[C@]2(C(=O)O)CC[C@]3(C)C(=CCC4[C@@]5(C)C(=O)C[C@H](O)[C@@](C)(CO)C5CC[C@]43C)[C@@H]2C1 (stereo partly drawn)
inactive
CCC/C=C1\OC(=O)C2=C1CCC(O)C2O (stereo not drawn)
inactive
CC(C)=CCC/C(C)=C/CO[C@@H]1O[C@H](CO[C@@H]2OC[C@](O)(CO)[C@H]2O)[C@@H](O)[C@H](O)[C@H]1O
inactive
C/C(=C\CCC(C)C1CC(O)C2(C)C3CCC4C(C)(C)C(OC5OCC(O)C(O)C5O)CCC45CC35CC(O)C12C)C(=O)O (stereo not drawn)
inactive

Batch: activity change, negative = cell killing for all items listed.
1. COc1cccc(C(=O)NCCNc2nc3cc(C)cc(C)c3cc2C#N)c1
2. CC1=C2C(=O)C=C(CO[C@@H]3O[C@H](CO)[C@@H](O)[C@H](O)[C@H]3O)[C@@H]2[C@H]2OC(=O)[C@H](C)[C@@H]2CC1
3. C=C(C)[C@@]1(O)C[C@@]2(C)C(=CC1=O)CC[C@@H](O)[C@@H]2C

OUTPUT:
inactive
inactive
inactive

----------
System: SKOV3
Experiment: Primary qHTS to identify gynecologic anti-cancer compounds using libraries of approved drugs and bioactive compounds (AID 1345084); further: on the % scale 0 is the no-effect control and ±100 the full control effect; nearly all actives have a fitted effect of over 55% in size
Conditions: Gynecologic cancer cell panel viability, ATPlite luminescence, 48 h; series mostly up to 57.5 µM
Text: National Center for Advancing Translational Sciences [NCATS] Assay Overview: Chemotherapeutic drug responses vary from cancer to cancer and from patient to patient. […] ATPlite is a luminescence based assay reliant on the conversion of a luciferase substrate to light in the presence of ATP. As a cytotoxic compound will suppress growth and decrease the number of cells, the concentration of ATP will decrease, and less light signal will be detected in the well. […]
Records with an inconclusive call do not appear. Activity calls are given as the source filed them. Calls come from the whole dose curve; as a rule, active = well fitted cell-killing curve with a large enough effect; inconclusive = small, poorly fitted or top-dose-only effect, or effect the other way; inactive = flat fitted curve, though single readings scatter.
metricName: activity change, negative = cytotoxicity

CC1=C2C(=O)C=C(CO[C@@H]3O[C@H](CO)[C@@H](O)[C@H](O)[C@H]3O)[C@@H]2[C@H]2OC(=O)[C@H](C)[C@@H]2[C@@H](O)C1
inactive
C[C@@H]1O[C@@H](O[C@H]2[C@H](O[C@H]3[C@H](O[C@H]4CC[C@@]5(C)C(CC[C@]6(C)C5CC=C5[C@@H]7CC(C)(C)CC(=O)[C@]7(C)CC[C@]56C)[C@@]4(C)CO)O[C@H](C(=O)O)[C@@H](O)[C@@H]3O)O[C@H](CO)[C@H](O)[C@@H]2O)[C@H](O)[C@H](O)[C@H]1O (stereo not given in full)
0.762% [at 11.6 µM] (inactive)
C=C1C(=O)OC[C@H]2C(C(=O)O)=CC3CC(C)(C)C[C@@]132 (stereo not given in full)
inactive
CC1(C)CCC2(C(=O)O)C(O)CC3(C)C(=CCC4C5(C)CCC(OC6OC(CO)C(O)C(O)C6OC6OC(CO)C(O)C(O)C6OC6OCC(O)(CO)C6O)C(C)(C)C5CCC43C)C2C1 (stereo not given)
9.15% [at 11.6 µM] (inactive)
CC[C@H]1OC(=O)[C@H](C)C(=O)[C@H](C)[C@@H](OC2O[C@H](C)C[C@H](N(C)C)[C@H]2O)[C@@H](C)C[C@@H](C)C(=O)/C=C/[C@]1(C)O (stereo not given in full)
inactive

For each of the compounds below, state activity change, negative = cytotoxicity.
1. Oc1ccc2c(-c3c(-c4ccccn4)nn4c3CCC4)ccnc2c1
2. CC1(C)CCC[C@@]2(C)[C@H]1[C@H](O)C=C(CO)[C@]2(O)CO
3. N#Cc1cccc(-c2c[nH]c3ncnc(N4CCOCC4)c23)c1
4. NC(=O)[C@H](Cc1ccccc1)NC(=O)[C@H](CCCN=C(N)N)NC(=O)C12CC3CC(CC(C3)C1)C2
5. COc1ccc(CC(=O)NCc2ccccc2-c2ccccc2C(=O)NCCc2cccnc2)cc1
6. O=C(Cc1ccc(Cl)cc1)Nc1cnccc1C(=O)O
7. COc1ccc(NC(=O)c2ccc(-c3ccc(C(N)=O)cc3C)cc2)cc1N1CCN(C)CC1
8. CCCSc1nc(NC2CC2c2ccc(F)c(F)c2)c2nnn(C3CC(OCCO)C(O)C3O)c2n1 (stereo not given)

OUTPUT:
1. inactive
2. inactive
3. inactive
4. 6.06% [at 11.6 µM] (inactive)
5. inactive
6. inactive
7. inactive
8. inactive

Please give activity change, negative = cytotoxicity for each item listed below.
1. CC1=C2CC3C(CCC3(C)O)C(C)(O)CC2OC1=O (stereo not given)
2. C=C(C)[C@@H]1CC[C@]2(CO)CC[C@]3(C)[C@H](CC[C@@H]4[C@@]5(C)CC[C@H](O)C(C)(C)[C@@H]5CC[C@]43C)[C@@H]12

OUTPUT:
1: inactive; 2: inactive

----------
So I've got a bunch of compounds here, and I need their max response values.
system: HEK293; experiment: Cytotoxic Profiling of Annotated Libraries Using Quantitative High-Throughput Screening (AID 1296008); conditions: Five cell lines viability, CellTiter-Glo ATP luminescence, 48-72 h; hits give low values; further: on the % scale 0 is the no-effect control and ±100 the full control effect; nearly all actives have a fitted effect of over 60% in size
Records with an inconclusive call do not appear.
Give bare numbers, in %.

Below, each entry is followed by its recorded max response result.
COc1ccc(/C=C/C(N)=O)cc1OC
3.65
COc1cc(C(C)=O)ccc1O[C@@H]1O[C@H](CO)[C@@H](O)[C@H](O)[C@H]1O
-0.593
C=C1C2CCC3CC2(CC(O)C2(O)C1CC(OC1OC(CO)C(O)C(O)C1O)C2(C)C)CC3(C)O (stereo not drawn)
4.37

Hello, I would appreciate it if you could give max response for each entry below.
1. C[C@@H]1CC[C@]2(C(=O)O[C@@H]3O[C@H](CO[C@@H]4O[C@H](CO)[C@@H](O)[C@H](O)[C@H]4O)[C@@H](O)[C@H](O)[C@H]3O)CC[C@]3(C)C(=CCC4[C@@]5(C)CC[C@H](O)[C@](C)(C(=O)O)C5CC[C@]43C)[C@@H]2[C@]1(C)O (stereo partly drawn)
2. COc1cccc(OC)c1-c1cc(C(=O)N[C@@H](CC(C)C)C(=O)O)nn1-c1ccnc2cc(Cl)ccc12

OUTPUT:
1. 3.94
2. -1.22
